Biological target: Serotonin 2 receptors; 5-HT2a & 5-HT2c (Homo sapiens) (UniProt P28223+P28335)
Sequence (P28223 whole entry, looked up): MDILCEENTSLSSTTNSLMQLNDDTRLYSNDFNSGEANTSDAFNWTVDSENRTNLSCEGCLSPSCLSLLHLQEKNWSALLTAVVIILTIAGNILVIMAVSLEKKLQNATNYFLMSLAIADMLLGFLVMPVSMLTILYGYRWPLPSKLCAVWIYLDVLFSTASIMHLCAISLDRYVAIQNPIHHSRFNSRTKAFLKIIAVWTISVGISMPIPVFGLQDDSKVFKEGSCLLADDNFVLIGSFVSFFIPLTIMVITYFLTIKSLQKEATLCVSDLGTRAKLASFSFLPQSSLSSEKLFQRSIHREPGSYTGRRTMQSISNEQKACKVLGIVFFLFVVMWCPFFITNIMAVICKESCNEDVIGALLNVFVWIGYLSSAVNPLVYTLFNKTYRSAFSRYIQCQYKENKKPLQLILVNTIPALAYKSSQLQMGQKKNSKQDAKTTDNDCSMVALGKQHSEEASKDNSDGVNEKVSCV
Sequence (P28335 whole entry, looked up): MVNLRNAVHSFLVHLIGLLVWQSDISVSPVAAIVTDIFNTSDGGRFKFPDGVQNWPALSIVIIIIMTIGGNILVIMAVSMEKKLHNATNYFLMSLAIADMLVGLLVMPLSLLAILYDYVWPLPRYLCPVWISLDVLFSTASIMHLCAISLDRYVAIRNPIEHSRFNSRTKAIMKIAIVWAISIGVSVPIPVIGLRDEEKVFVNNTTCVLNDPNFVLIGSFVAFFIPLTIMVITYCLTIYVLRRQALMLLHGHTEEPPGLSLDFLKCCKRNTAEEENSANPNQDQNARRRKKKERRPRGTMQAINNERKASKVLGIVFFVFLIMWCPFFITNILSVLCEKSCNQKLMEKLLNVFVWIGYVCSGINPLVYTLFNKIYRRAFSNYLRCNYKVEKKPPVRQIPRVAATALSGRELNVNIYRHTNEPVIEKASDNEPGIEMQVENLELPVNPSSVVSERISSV
Assay: Selectivity for human 5HT2A to human 5HT2C
The label is Fulfilled for Ratio Ki below 3 and Not fulfilled for Ratio Ki equal to or exceeding 3.

> print(dat)
                                mol.smiles   answer.label
 1              C[C@H](N)Cn1ncc2cc(F)ccc21      Fulfilled
 2             COc1ccc2cnn(C[C@H](C)N)c2c1      Fulfilled
 3           COc1ccc2cnn(C[C@H](C)N)c2c1Cl  Not fulfilled
 4        COc1nn(C[C@H](C)N)c2c1ccc1occc12  Not fulfilled
 5         C[C@H](N)Cn1ncc2ccc(Cl)c(Cl)c21      Fulfilled
 6  CCc1cc2c(ccc3c(CC)nn(C[C@H](C)N)c32)o1  Not fulfilled
 7            C[C@H](N)Cn1ncc2ccc3sccc3c21  Not fulfilled
 8         Cc1nn(C[C@H](C)N)c2c1ccc1occc12      Fulfilled
 9            C[C@H](N)Cn1ncc2ccc3occc3c21  Not fulfilled
10   CCc1cc2c(ccc3c(C)nn(C[C@H](C)N)c32)o1  Not fulfilled
11      CCc1cc2c(ccc3cnn(C[C@H](C)N)c32)o1  Not fulfilled
12       Cc1cc2c(ccc3cnn(C[C@H](C)N)c32)o1  Not fulfilled
13        CCc1nn(C[C@H](C)N)c2c1ccc1occc12  Not fulfilled
14          C[C@H](N)Cn1ccc2cc(F)c(Cl)cc21      Fulfilled
15            C[C@H](N)Cn1ncc2ccc3ocnc3c21      Fulfilled
16   CC(C)c1cc2c(ccc3cnn(C[C@H](C)N)c32)o1  Not fulfilled
17         C[C@H](N)Cn1ncc2cc(Cl)c(Cl)cc21      Fulfilled
